Sourced from patent US20240400711A1

Target Or System: T1, recombinant extracellular domain of CD38 (human, UniProt P28907 43-300)
T1 construct: also called CD38 extracellular domain; AtaGenix ATMP00140HU
Assay Explanation: Biacore SPR
Reported Endpoint: koff (s⁻¹)
Express the result in s⁻¹ but write the number alone.

FTL004-hu-11 (antibody, human IgG1, kappa, V domains shown, also called FLT004-hu-11; FTL004-hum-11) VH: QVQLVQSGAEVKKPGASVKVSCKASGYTFTDYNVHWIRQAPGQGLEWIGYFYPRNGATHYNQKFTGRATLTVDTSTSTAYMEISSLRSEDTAVYFCARGETPGTFPYWGQGTLVTVSS VL: DIQLTQSPSSLSASVGDRVTITCRASESVDNFGITFMHWYQQKPGKAPKLLIYRASNLESGVPSRFSGSGSRTDFTLTISSLQPEDFATYYCQQSSKDPRTFGQGTKLEIKR : 0.000848

Now, please, on to the next binder.
[ask] What does the data say about its koff? Entry: FTL004-hu-16 (antibody, human IgG1, kappa, V domains shown, also called FLT004-hu-16; FTL004-hum-16) VH: EVQLVQSGAEVKKPGATVKISCKASGYTFTDYNVHWIQQAPGKGLEWIGYFYPRNGATHYAEKFQGRVTLTADTSTDTAYMELSSLRSEDTAVYYCARGETPGTFPYWGQGTLVTVSS VL: EIVLTQSPATLSLSPGERATLSCRASESVDNFGITFMHWYQQKPGQAPRLLIYRASNLESGIPARFSGSGSRTDFTLTISSLEPEDFAVYYCQQSSKDPRTFGQGTKLEIKR
[reply] 0.00459
